# Lookup of reported pKd keyed by entry
# TARGET SYSTEM: BRD4 bromodomains (Homo sapiens)
# Construct: fused on or other part: T7 phage capsid protein (phage-display fusion; the phage DNA is read out by qPCR)
# ASSAY EXPLANATION: BROMOscan bromodomain competition binding assay (DiscoveRx)
# CONDITION: Kd from 11 compound concentrations ranging from 0 to 10 μM, read-out: BROMOscan Relative Activity
pKd: −log10 of the molar value.

Record Cc1noc(C)c1-c1ccc2nc(C3=CCNCC3)nc(NCc3cccc(Cl)c3)c2c1 [Example 31] / BRD4 bromodomains (Homo sapiens), pKd recorded as > 6.30

Record Cc1noc(C)c1-c1ccc2nc(N3CCC4(CC3)CC(O)C4)nc(N3CCOC[C@@H]3c3ccccc3)c2c1 [Example 313] / BRD4 bromodomains (Homo sapiens), pKd recorded as > 6.30
